# Test system: RIOK2;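 further: KINOMEscan kinase panel screen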
# Cond: concentration: 1 μM,replicates: in singlicate; n = 1
Listing of entries alongside the reported %Inh.
Measure: %Inh (%)

| Molecule | Tgt | Reported |
| --- | --- | --- |
| CC(C)N1C(=O)Cc2cc(Nc3ncc(C(F)(F)F)c(NCc4cccc(S(C)(=O)=O)c4)n3)ccc21 | RIOK2 | 21 |
| C[C@H]1Oc2cc(cnc2N)-c2c(nn(C)c2C#N)CN(C)C(=O)c2ccc(F)cc21 | RIOK2 | 0 |
| Cl.Oc1cc(-c2nc(-c3ccccc3)[nH]c2-c2ccncc2)ccc1Cl [SB-386023] | RIOK2 | 5 |
| CC(C)Nc1cc(-c2ccc3c(N)n[nH]c3c2)nc(N)n1 [GSK2221681] | RIOK2 | 19 |
| NC(=O)c1cc(-c2ccccc2)cc2c(C3CCNCC3)c[nH]c12 [GSK301362] | RIOK2 | 20 |
| CNC(=O)c1ccccc1Sc1ccc2c(/C=C/c3ccccn3)n[nH]c2c1 | RIOK2 | 0 |
| C[C@@H]1CCN(C(=O)CC#N)C[C@@H]1N(C)c1ncnc2[nH]ccc12 | RIOK2 | 0 |
| COc1ccc(C[C@@H](CN)NC(=O)c2cc(Br)c(-c3ccnc4[nH]ccc34)s2)cc1.Cl.Cl [GSK1389063] | RIOK2 | 49 |
| Nc1nc(Nc2ccccc2)cc(-c2ccc3c(N)n[nH]c3c2)n1 [GSK2225749] | RIOK2 | 54 |
| O=C(NCCNc1ccnc(NCc2ccc(F)cc2)n1)c1cc2ccccc2s1 [GSK1379944] | RIOK2 | 0 |
